molecular target: Drosophila OR10a (Drosophila melanogaster); construct: expressed in transfected cells; assay: Calcium ion fluorescence (GCaMP6) assay, OR10a stable HEK293 cell line; type: cell-based; details: 10 μM VOC; 50 μM VUAA1 = 1; responses not exceeding 0.05 considered 0
Sequence (Q9VYZ1 whole entry, one chain of several, the tested form may be a part): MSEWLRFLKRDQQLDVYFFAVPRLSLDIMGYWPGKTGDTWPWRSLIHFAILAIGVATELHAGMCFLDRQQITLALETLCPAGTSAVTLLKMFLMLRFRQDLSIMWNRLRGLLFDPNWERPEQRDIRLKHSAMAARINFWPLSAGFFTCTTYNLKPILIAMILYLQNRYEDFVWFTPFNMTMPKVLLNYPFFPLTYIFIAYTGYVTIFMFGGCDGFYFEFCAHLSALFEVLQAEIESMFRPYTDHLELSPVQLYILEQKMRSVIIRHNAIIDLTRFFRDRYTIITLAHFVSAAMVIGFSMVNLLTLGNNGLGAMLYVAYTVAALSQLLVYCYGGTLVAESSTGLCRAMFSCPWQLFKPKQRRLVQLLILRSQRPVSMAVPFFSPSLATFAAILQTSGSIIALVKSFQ
OR10a Average response (VUAA1-normalized): recorded values
Please state the value as a number alone, without comment.

1) CC/C=C\CCO: 0.19
2) C=C(C)[C@H]1CC=C(C)CC1 [(R)-(+)-limonene]: 0.12
3) C=C(C)C1CCC2(C)OC2C1 (single isomer, unassigned; (+)) [(+)-limonene oxide]: 0.02
4) C=C1[C@H]2CC[C@@H]3[C@H]2C(C)(C)CCC[C@]13C [(+)-longifolene]: 0.0537
5) CC/C=C/CCO: 0.00

[Q] In one line, give reported OR10a Average response (VUAA1-normalized) of the entry `CC(C)=CCC/C(C)=C/CC/C(C)=C/CO` .
[A] 0.0633

[Q] Output measured OR10a Average response (VUAA1-normalized) for this item: C=C(C)[C@H]1CC=C(C)CC1 [limonene]
[A] 0.00

[Q] Quote OR10a Average response (VUAA1-normalized) reported for CC1=CCC[C@@]2(C)[C@@H]3CC[C@]12CC3(C)C [(−)-α-neoclovene] please.
[A] 0.13

* * *

molecular target: Drosophila OR98a (Drosophila melanogaster, UniProt Q9VAZ3); construct: expressed in transfected cells; assay: Calcium ion fluorescence (GCaMP6) assay, OR98a stable HEK293 cell line; assay type: cell-based; details: HEK293, read-out: OR98a response (VUAA1-normalized response);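 note: ligand concentrations in µM final VOC concentration in well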
Sequence (Q9VAZ3 whole entry, the tested form may be a part): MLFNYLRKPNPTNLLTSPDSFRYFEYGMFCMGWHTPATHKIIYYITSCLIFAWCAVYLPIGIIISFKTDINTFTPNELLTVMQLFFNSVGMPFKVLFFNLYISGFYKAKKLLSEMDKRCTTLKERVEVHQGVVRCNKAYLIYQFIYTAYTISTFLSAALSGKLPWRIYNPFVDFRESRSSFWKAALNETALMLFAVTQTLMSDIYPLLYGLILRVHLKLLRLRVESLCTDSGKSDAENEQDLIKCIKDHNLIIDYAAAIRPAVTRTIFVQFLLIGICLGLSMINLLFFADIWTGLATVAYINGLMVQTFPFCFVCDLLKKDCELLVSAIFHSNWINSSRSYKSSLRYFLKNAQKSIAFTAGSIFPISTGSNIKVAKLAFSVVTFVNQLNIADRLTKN
Sequence (Q9VNB5 whole entry partner, the tested form may be a part): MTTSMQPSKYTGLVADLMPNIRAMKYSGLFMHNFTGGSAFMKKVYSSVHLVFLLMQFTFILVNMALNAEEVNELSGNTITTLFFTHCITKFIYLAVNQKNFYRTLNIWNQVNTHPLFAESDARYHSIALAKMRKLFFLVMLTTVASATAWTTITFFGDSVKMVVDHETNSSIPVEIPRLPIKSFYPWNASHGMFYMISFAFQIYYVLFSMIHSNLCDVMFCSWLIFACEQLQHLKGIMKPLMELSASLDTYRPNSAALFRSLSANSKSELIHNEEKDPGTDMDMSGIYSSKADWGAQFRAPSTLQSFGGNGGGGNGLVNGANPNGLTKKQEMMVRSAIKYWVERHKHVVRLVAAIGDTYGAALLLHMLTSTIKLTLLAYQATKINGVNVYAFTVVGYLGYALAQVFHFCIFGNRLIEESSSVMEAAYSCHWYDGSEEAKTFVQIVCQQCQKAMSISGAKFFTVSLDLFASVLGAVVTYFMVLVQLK
quantity: activation at 10 µM (%)
Reply numerically in %, unit not repeated.

1. C=C1CCC2CC1C2(C)C (stereo not drawn) [beta-pinene]: 17

[Q] Output reported activation at 10 µM of the compound Cc1cccc(O)c1 [3-methylphenol] on Drosophila OR98a (Drosophila melanogaster, UniProt Q9VAZ3).
[A] 0

[Q] Report the value of activation at 10 µM obtained on Drosophila OR98a (Drosophila melanogaster, UniProt Q9VAZ3) for CCCCCCCCCC=O [decanal] .
[A] 0

[Q] # return activation at 10 µM for CCOC(=O)CC [ethyl propionate] , test system: Drosophila OR98a (Drosophila melanogaster, UniProt Q9VAZ3)
[A] 0

[Q] Write down the reported activation at 10 µM (system: Drosophila OR98a (Drosophila melanogaster, UniProt Q9VAZ3)) of CC1=CCC2C(C1)C2(C)C (stereo not drawn) [3-carene]
[A] 0

[Q] Answer with activation at 10 µM of CC1=CC[C@@H](C(C)(C)O)CC1 [alpha-terpineol] measured for Drosophila OR98a (Drosophila melanogaster, UniProt Q9VAZ3).
[A] 0

[Q] Using Drosophila OR98a (Drosophila melanogaster, UniProt Q9VAZ3) as the test system, report measured activation at 10 µM of CCCCCO [1-pentanol] .
[A] 0

[Q] Jot down activation at 10 µM (Drosophila OR98a (Drosophila melanogaster, UniProt Q9VAZ3)) of CCCCCC(=O)CC [3-octanone] .
[A] 0

[Q] Determine reported activation at 10 µM for C=CCc1ccc(O)c(OC)c1 [eugenol] ; test system: Drosophila OR98a (Drosophila melanogaster, UniProt Q9VAZ3).
[A] 0

[Q] Tell me activation at 10 µM of CCCCCCCO [1-heptanol] when tested on Drosophila OR98a (Drosophila melanogaster, UniProt Q9VAZ3).
[A] 5

[Q] Give activation at 10 µM for CC1=CCC2CC1C2(C)C (stereo not drawn) [alpha-pinene] tested on Drosophila OR98a (Drosophila melanogaster, UniProt Q9VAZ3).
[A] 0

* * *

Entries annotated with measured DF norm AVERAGE OR85b
biological target: Drosophila OR85b (Drosophila melanogaster); construct: expressed in transfected cells; assay: Calcium ion fluorescence (GCaMP6) assay, OR85b stable HEK293 cell line; format: cell-based; conditions: ligand concentration 100 (unit not given); threshold 0.05, below shown as 0
Number only, please.

Worked cases, DF norm AVERAGE OR85b given:
1. Cc1cccc(C)c1: 0.08801
2. CCCCCOC(C)=O [pentyl acetate]: 0.1368
3. Cc1ccc(C)cc1: 0.06066
4. COC(=O)c1ccccc1O [methyl salicylate]: 0.1286
5. C=CC(C)(O)CCC=C(C)C (stereo not drawn): 0.06299

[Q] Note DF norm AVERAGE OR85b for the molecule shown: `CC/C=C/CCO`
[A] 0

[Q] Tell me measured DF norm AVERAGE OR85b for `Cc1ccc(C(C)C)cc1` please.
[A] 0.09049

* * *

molecular target: Drosophila OR98a (Drosophila melanogaster, UniProt Q9VAZ3); construct: expressed in transfected cells; test: Calcium ion fluorescence (GCaMP6) assay, OR98a stable HEK293 cell line; format: cell-based; details: HEK293, read-out: Average response;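 note: ligand concentrations in µM final VOC concentration in well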
quantity: activation at 10 µM (%)
# unit: % | format: bare number

Sample answers from the record:
1) CC(=O)OCC(C)C [isobutyl acetate]: 0
2) CCCCCCCCCCCCCC [tetradecane]: 12
3) CCc1ccccc1 [ethylbenzene]: 12
4) CCCCC(C)=O [2-hexanone]: 4.36
5) CCCCCOC(C)=O [pentyl acetate]: 4
6) C=CC(O)CCCCC (stereo not shown) [1-octen-3-ol]: 1.13
7) COC(=O)c1ccccc1O [methyl salicylate]: 1.79
8) CCCCCCCCC=O [nonanal]: 0

[Q] Respond only with activation at 10 µM recorded for CCCC(=O)OCC [ethyl butyrate]
[A] 0

[Q] Entry CCCCCC(O)CC (stereo not shown) [3-octanol] needs its activation at 10 µM filled in; supply it.
[A] 3.68

[Q] Kindly indicate its recorded activation at 10 µM. Item: Cc1ccc(C)cc1 [p-xylene]
[A] 2.51

[Q] Dear colleague, please send me the reported activation at 10 µM for CCOC(=O)c1ccccc1 [ethyl benzoate] when you can.
[A] 0

[Q] Return the recorded activation at 10 µM value; entry: CCCCCC(C)O (stereo not shown) [2-heptanol]
[A] 3.67

[Q] Note activation at 10 µM for the compound shown: O=Cc1ccccc1 [benzaldehyde]
[A] 0

[Q] Note activation at 10 µM for the compound shown: CCCCCC(=O)OCC [ethyl hexanoate]
[A] 12

* * *

Listed here are molecules together with their documented activation at 100 µM.
molecular target: Drosophila OR10a (Drosophila melanogaster); construct: expressed in transfected cells; experiment: Calcium ion fluorescence (GCaMP6) assay, OR10a stable HEK293 cell line; type: cell-based; details: HEK293, 100 μM VOC; 50 μM VUAA1 = 1; responses not exceeding 0.05 considered 0; read-out: OR10a Average response (VUAA1-normalized)
Quick note: give the figure in %, leave out the unit.

1. CCCCOC(=O)CC [butyl propanoate]: 3.44

[Q] Give a short answer stating reported activation at 100 µM for `CCCCCC(=O)CC` .
[A] 2.65

[Q] Give reported activation at 100 µM value for `CCCCCCCCCCC`
[A] 0

[Q] Note activation at 100 µM for the molecule shown: CCCCCOC(C)=O [pentyl acetate]
[A] 30

[Q] Retrieve activation at 100 µM measured for CC(=O)OCCC(C)C [isopentyl acetate] and print it.
[A] 10

[Q] Please supply the value of reported activation at 100 µM for the item CCCOC(C)=O [propyl acetate]
[A] 0

[Q] Input `Cc1ccc(C)c(C)c1` , output reported activation at 100 µM.
[A] 2.53

[Q] Note down activation at 100 µM recorded for CC1=CCC23CC1C(C)(C)C2CCC3C (centres unmarked)
[A] 2.42

* * *

molecular target: Drosophila OR85b (Drosophila melanogaster, UniProt Q9VHQ7); construct: expressed in transfected cells; assay: Calcium ion fluorescence (GCaMP6) assay, OR85b stable HEK293 cell line; type: cell-based; settings: OR85b cell line; cc. 100 µM; VUAA1-normalized response, mean of biological replicates
Sequence (Q9VHQ7 whole entry, one chain of several, the tested form may be a part): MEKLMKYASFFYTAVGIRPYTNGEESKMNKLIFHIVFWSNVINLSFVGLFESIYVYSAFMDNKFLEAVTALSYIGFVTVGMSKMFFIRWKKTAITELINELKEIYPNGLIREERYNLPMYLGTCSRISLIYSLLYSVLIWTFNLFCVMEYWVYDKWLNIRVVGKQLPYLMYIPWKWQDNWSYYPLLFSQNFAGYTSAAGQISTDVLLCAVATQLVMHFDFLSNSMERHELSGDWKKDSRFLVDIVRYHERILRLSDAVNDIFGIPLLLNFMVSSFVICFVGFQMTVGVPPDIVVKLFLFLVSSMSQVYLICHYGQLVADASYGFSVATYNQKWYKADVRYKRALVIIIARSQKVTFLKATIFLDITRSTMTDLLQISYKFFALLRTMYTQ
Classification field: condition met = Average response at or over 0.02; condition not met = Average response under 0.02.

Some entries whose results are on file:
1) CCCCCC(C)O (centres unmarked): condition met
2) Cc1ccc(O)cc1: condition not met
3) CCCCCOC(C)=O [pentyl acetate]: condition met
4) C=C1CCC2(C(C)C)CC12 (centres unmarked): condition met
5) C=C1CC[C@H]2O[C@]2(C)CC[C@@H]2[C@@H]1CC2(C)C [(-)-caryophyllene oxide]: condition met
6) CCCCCCCCCCCCCC: condition met

[Q] Given the entry CCCOC(C)=O [propyl acetate] , answer whether its Average response meets or surpasses 0.02.
[A] condition not met

[Q] # check: Average response of C=C1CC/C=C(\C)CC[C@@H]2[C@@H]1CC2(C)C [(-)-trans-caryophyllene] is greater than or equal to 0.02
[A] condition met

[Q] # bool: Average response of `COc1cccc(OC)c1` >= 0.02
[A] condition met

[Q] Confirm if Average response reported for the compound CC1=CCC2CC1C2(C)C (centres unmarked) is 0.02 or above.
[A] condition met

[Q] Hi, just wondering whether C=C(C)C1CCC2(C)OC2C1 (single isomer, unassigned; (+)) [(+)-limonene oxide] shows Average response of 0.02 or higher.
[A] condition not met

Values compiled from paper PMC10709440.
